pIC50: −log10 of the molar value.
Let's go through some recorded pIC50 values for PAK3 (Homo sapiens) together.

### Prompt Look up pIC50: `CN1CCN(c2ccc(Nc3ncc4ccc(=O)n(Cc5c(Cl)cccc5Cl)c4n3)cc2)CC1`
### Response 5.00 to 6.00

### Prompt Quick one: `CN1CCN(c2ccc(Nc3ncc4ccc(=O)n(Cc5c(F)cccc5Br)c4n3)cc2)CC1`
### Response > 6.00

### Prompt Input `CCNc1ccc(-c2ccnc(Nc3ccc(N4CCN(C)CC4)cc3)n2)cn1`
### Response < 5.00

### Prompt Also `CN1CCN(c2ccc(Nc3ncc4ccc(=O)n(CCc5ccccc5C(F)(F)F)c4n3)cc2)CC1` , if possible.
### Response 5.00 to 6.00

### Prompt What would you report for `CN1CCN(c2ccc(Nc3ncc4ccc(=O)n(Cc5c(Cl)cccc5-c5cccs5)c4n3)cc2)CC1` ?
### Response < 5.00

### Prompt Entry `CN1CCN(c2ccc(Nc3ncc4ccc(=O)n(Cc5ccccc5C5CC5)c4n3)cc2)CC1` please
### Response > 6.00

### Prompt # iterate: `Cc1c(F)cccc1Cn1c(=O)ccc2cnc(Nc3ccc(N4CCN(C)CC4)cc3)nc21`
### Response < 5.00

### Prompt One more compound: `CN1CCN(c2ccc(Nc3ncc4ccc(=O)n(Cc5ccccc5N5CCOCC5)c4n3)cc2)CC1`
### Response > 6.00

### Prompt Now the same for `CN1CCN(c2ccc(Nc3ncc4ccc(=O)n(Cc5ccccc5S(C)(=O)=O)c4n3)cc2)CC1`
### Response > 6.00

### Prompt Please give the result for `Cc1cc(Nc2nccc(-c3ccc(NCCN4CCCCC4)nc3)n2)ccc1N1CCN(C)CC1` too.
### Response < 5.00

### Prompt Moving on to `CN1CCN(c2ccc(Nc3ncc4ccc(=O)n(Cc5ccccc5-c5ccccc5)c4n3)cc2)CC1`
### Response > 6.00

### Prompt Then what about the compound `CN1CCN(c2ccc(Nc3ncc4ccc(=O)n(Cc5ccccc5Br)c4n3)cc2)CC1` ?
### Response > 6.00

### Prompt Ok, now `CN1CCN(c2ccc(Nc3ncc4ccc(=O)n(Cc5c(F)cccc5F)c4n3)cc2)CC1`
### Response 5.00 to 6.00

### Prompt Note, next up: `Cc1cccc(Cl)c1Cn1c(=O)ccc2cnc(Nc3ccc(N4CCN(C)CC4)cc3)nc21`
### Response 5.00 to 6.00

### Prompt Similarly, `Cc1noc(-c2ccccc2Cn2c(=O)ccc3cnc(Nc4ccc(N5CCNCC5)c(F)c4)nc32)n1` ?
### Response 5.00 to 6.00

### Prompt Try `CN1CCN(c2ccc(Nc3nccc(-c4ccc(NCCN)nc4)n3)cc2F)CC1` next.
### Response 5.00 to 6.00

### Prompt Queued: `CN1CCN(c2ccc(Nc3ncc4ccc(=O)n(Cc5c(Cl)cccc5Br)c4n3)cc2)CC1`
### Response > 6.00

### Prompt Likewise for `COc1cccc(F)c1Cn1c(=O)ccc2cnc(Nc3ccc(N4CCN(C)CC4)cc3)nc21` ?
### Response 5.00 to 6.00

### Prompt And for CN1CCN(c2ccc(Nc3nccc(-c4ccc(NCCN)nc4)n3)cc2)CC1.Cl [Compound 94, hydrochloride] ?
### Response 5.00 to 6.00

### Prompt And the next one, `CN1CCN(c2ccc(Nc3ncc4ccc(=O)n(Cc5c(Cl)cccc5C5CC5)c4n3)cc2)CC1` ?
### Response > 6.00

### Prompt Try this compound next: `CN1CCN(c2ccc(Nc3ncc4ccc(=O)n([C@H]5CCCc6ccccc65)c4n3)cc2)CC1`
### Response 5.00 to 6.00

### Prompt // repeat for `CN1CCN(c2ccc(Nc3nccc(-c4ccc(NCCN5CCCCC5)nc4)n3)cc2)CC1` and report
### Response < 5.00

### Prompt // next record `CN1CCN(c2cccc(Nc3nccc(-c4ccc(NCCN)nc4)n3)c2)CC1`
### Response < 5.00
